- Tested on: Schistosoma mansoni schistosomula (NMRI)
- assay-remarks: phenotypic severity score (0-4); higher = more antischistosomal effect, active = 2 or more
- settings: 72 h; 10 µM
Labels: active, inactive

- COc1cc(C2=NCCN2)ccc1-c1cn(-c2cccc(C3=NCCN3)c2)nn1: inactive
- COc1cc(C2=NCCN2)cc2cc(-c3ccc(C4=NCCN4)cc3)oc12: inactive
- COc1ccc(-c2nnc3ccc(-c4cccc(C(C)C)c4)cn23)cc1OC: inactive
- CC(Oc1ccccc1)C(=O)Nc1nc(-c2ccccn2)cs1 (stereo not given): active
- Cc1nnc(NC(=O)c2cn(-c3ccccc3)nc2-c2ccccc2C)o1: inactive
- Cc1cc(C)n(-c2ccc(NC(=O)C3CCN(Cc4cnc(C)s4)CC3)cc2)n1: inactive
- CC(C)(C)OC(=O)N1CCN(c2cc(-c3ccc(Oc4ccccc4)cc3)n[nH]2)CC1: inactive
- FC(F)(F)c1ccc(N(c2cccnc2)C2CCN(c3ccc(C(F)(F)F)cn3)CC2)cc1: inactive
- NCC(c1cccs1)S(=O)(=O)c1ccccc1 (stereo not given): active
- Clc1ccc(CCNc2cc(-c3ccccc3)nc3ncnn23)cc1: inactive
- CC(c1cc(Cl)cc(Cl)c1)N(C)c1ncc2c(N)nc(N)nc2n1 (stereo not given): inactive
- COc1cccc(-n2nnnc2S(=O)(=O)Cc2ccccc2)c1: active
- Cc1ccc(NC(=O)c2cc(S(=O)(=O)NC(C)(C)C)ccc2C)nc1: inactive
- COc1cccc2c(C)nc(N=C(N)N)nc12: inactive
- Cc1ccc(C(=O)Nc2ccc(S(=O)(=O)O)c3cc(S(=O)(=O)O)cc(S(=O)(=O)O)c23)cc1NC(=O)c1cccc(NC(=O)Nc2cccc(C(=O)Nc3cc(C(=O)Nc4ccc(S(=O)(=O)O)c5cc(S(=O)(=O)O)cc(S(=O)(=O)O)c45)ccc3C)c2)c1: inactive
- CS(=O)(=O)c1ccccc1C(=O)N(Cc1ccccc1)c1ccccc1: inactive
- C[C@H](C(N)=O)N1CCCC[C@H]1c1ccc(OCc2cccc(F)c2)cc1: inactive
- CCCCc1ccc(NC(=O)Nc2ccc(O[C@H]3CCCC[C@@H]3N(C)c3ccccc3)c(F)c2)cc1: inactive
- Cc1nn(C(=O)Nc2cccc(C(F)(F)F)c2)c(C)c1Sc1ncccn1: inactive
- N=C(N)c1ccc(-c2cc(-c3ccccc3)on2)cc1: inactive

###

- System: Schistosoma mansoni schistosomula (Liberian)
- assay-remarks: drug effect (1 - score/DMSO control score) (fraction); higher = more antischistosomal effect, active = 0.5 or more; extreme values may be limits of the assay
- settings: 24 h; 10 µM
# drug effect per record follows
measured-property: drug effect

* c1cc(C2=NCCN2)cc(-c2cc(-c3ccc(C4=NCCN4)cc3)no2)c1 | 0.1 (inactive)
* O=C(Nc1ccccc1-c1nc2c(C(=O)O)cccc2o1)c1ccccc1 | 0.05 (inactive)
* Cc1cnc(CCNC(=O)c2cc(-c3ccc(Cl)cc3)cs2)[nH]1 | 0.136 (inactive)
* NC(=O)c1cc(-c2ccsc2)ccc1OCCOc1ccccc1 | 0.158 (inactive)

###

- System: Schistosoma mansoni schistosomula (Liberian)
- assay-remarks: drug effect (1 - score/DMSO control score) (fraction); higher = more antischistosomal effect, active = 0.5 or more; extreme values may be limits of the assay
- settings: 48 h; 10 µM
measured-property: drug effect

* Nc1ncc(-c2cn[nH]c2)cc1-c1nc2cc(Cl)cnc2[nH]1 | < 0 (inactive)
* CCc1ccccc1-n1c(C)cn2c3c(=O)n(C(C(=O)OC)C(C)C)c(=O)n(C)c3nc12 (stereo not given) | 0.405 (inactive)
* COc1cccn2c(C(=O)N3CCCCC3)c(C(F)(F)F)nc12 | 0.2 (inactive)
* COc1cc(CN2CCC3(C=Cc4ccccc43)CC2)cc2c1OCO2 | 0.135 (inactive)
* Cc1nc2ccccn2c1C(=O)NCc1ccc(Cl)cc1 | 0.189 (inactive)
* COc1cc(Br)cc2cc(C(=O)Nc3cccc(C(F)(F)F)c3)c(=O)oc12 | 0.0556 (inactive)
* COc1ccc(Nc2ccccc2NC(=O)c2ccc(O)nc2)cc1 | 0.45 (inactive)
* N=C(N)Nc1ccc(-c2ccc(-c3ccc(NC(=N)N)cc3Cl)o2)c(Cl)c1 | 0.111 (inactive)
* COc1ccccc1C(C)NCC(=O)Nc1cc(C(F)(F)F)ccc1Cl (stereo not given) | 0.135 (inactive)
* CN1CCC(NCc2cccc(-c3ccc(S(=O)(=O)NCc4ccccc4)cc3)c2)CC1 | 0.784 (active)
* Cc1ccc2oc(-c3cc(NC(=O)Cc4ccccc4)ccc3Cl)nc2c1 | 0.25 (inactive)
* O=C(Cn1ccnc1[N+](=O)[O-])NCc1ccccc1 | 0.243 (inactive)
* CCOC(=O)c1noc(N)c1-c1ccccc1 | 0.0811 (inactive)
* O=C(Nc1ccc(F)c(-c2nc3cc(-c4ccccc4)cnc3[nH]2)c1)N1CCCC1 | 0.667 (active)
* Cc1ccc(S(=O)(=O)N2CCN(C(=O)c3cc(-c4ccccc4)[nH]n3)CC2)cc1 | 0.75 (active)
* CNc1cc(C)nc(C2CN(C(=O)c3n[nH]c4ccccc34)CCO2)c1 (stereo not given) | 0.167 (inactive)
* O=C(Nc1nnc(-c2ccc(Cl)s2)o1)c1ccc(Cl)s1 | < 0 (inactive)
* Cc1[nH]c2cc(F)cc(F)c2c(=O)c1-c1ccc(Oc2ccc(OC(F)(F)F)cc2)cc1 | 0.778 (active)
* O=C(Nc1ccc(N2CCNCC2)cc1)c1ccn2ncc(-c3cccc(Cl)c3)c2n1 | 0.778 (active)
* NS(=O)(=O)c1cncc(-c2ccc3nccc(-c4cn[nH]c4)c3n2)c1 | 0.111 (inactive)
* CC1CCCCN1C(=O)NCCc1coc(-c2ccc(F)cc2)n1 (stereo not given) | 0.25 (inactive)
* Cc1ccc(S(=O)(=O)Nc2ccc(CN3CCN(C(=O)c4cccc(C#N)c4)CC3)cc2)cc1 | 0.0556 (inactive)
* O=C(c1ccc(NCCO)cc1)C1C[C@H]1c1ccc(Cl)cc1 (stereo not given in full) | 0.278 (inactive)
* Cc1ccc(-c2cc(C(=O)Nc3cccnc3)c3cc(Br)ccc3n2)cc1 | 0.667 (active)
* CCc1nc2ccccc2n1CC(O)COc1cc(C)ccc1Cl (stereo not given) | 0.25 (inactive)
